Provide the recorded MFC50 for the entries that follow.
Test system: Cr. neoformans strains
MEASUREMENT_DESCRIPTION: MFC determination
Type: cell-based, Cryptococcus neoformans
CONDITION_DETAILS: Cr. neoformans; kills 50% of strains

Illustrative cases are given below, each with its answer.
- SMILES_TEXT: "C[C@@H](c1ncncc1F)[C@](O)(Cn1cncn1)c1ccc(F)cc1F"
  READING: "> 0.5 µg/mL"
- SMILES_TEXT: "OC(Cn1cncn1)(Cn1cncn1)c1ccc(F)cc1F"
  READING: "> 64 µg/mL"

As a next step, examine the compound that follows.
**Query** Param readout = MFC50; param system = Cr. neoformans strains; param query = CC[C@H](C)C[C@H](C)CCCCCCCCC(=O)N[C@H]1C[C@@H](O)[C@@H](NCCN)NC(=O)[C@@H]2[C@@H](O)CCN2C(=O)[C@H]([C@H](O)CCN)NC(=O)[C@H]([C@H](O)[C@@H](O)c2ccc(O)cc2)NC(=O)[C@@H]2C[C@@H](O)CN2C(=O)[C@H]([C@@H](C)O)NC1=O ; response: value
**Result** > 32 µg/mL
